Attribution: the supplement of paper PMC9112550

- Test system: Escherichia coli TOP10
- assay: shrunken log2 fold change of peptide-encoding DNA abundance (4.5 h post-induction vs induction); higher = less antimicrobial activity (less host growth inhibition)
- run conditions: time post-induction: 4.5 h; library: site-saturation at positions 5, 18, 19, 20
assay readout: shrunken log2 fold change
Write no unit; give the number alone.

[
  {
    "residue string": "RRIRGRPPRLPRPRPRPHTWPRP",
    "shrunken log2 fold change": -0.0293
  },
  {
    "residue string": "RRIRHRPPRLPRPRPRPSIFPRP",
    "shrunken log2 fold change": -0.704
  },
  {
    "residue string": "RRIRLRPPRLPRPRPRPLLAPRP",
    "shrunken log2 fold change": 0.188
  },
  {
    "residue string": "RRIRARPPRLPRPRPRPNWRPRP",
    "shrunken log2 fold change": 0.883
  },
  {
    "residue string": "RRIRRRPPRLPRPRPRPLDRPRP",
    "shrunken log2 fold change": -0.00997
  },
  {
    "residue string": "RRIRFRPPRLPRPRPRPVNLPRP",
    "shrunken log2 fold change": 0.025
  }
]

Value of shrunken log2 fold change reported for the sequence `RRIRVRPPRLPRPRPRPQNTPRP` is -0.524

Memo: `RRIRNRPPRLPRPRPRPECFPRP` , reported shrunken log2 fold change: 0.0864

Lab note: `RRIRLRPPRLPRPRPRPVDVPRP` gave shrunken log2 fold change of 0.0939

get_value(item= `RRIRLRPPRLPRPRPRPDRLPRP` , readout=shrunken log2 fold change) returns -0.0156

Lab book: shrunken log2 fold change of `RRIRMRPPRLPRPRPRPCLQPRP` noted as -0.0178

The recorded shrunken log2 fold change for `RRIRDRPPRLPRPRPRPTFRPRP` is -0.0707

Per the record, `RRIRRRPPRLPRPRPRPEMKPRP` has shrunken log2 fold change of 0.215

# shrunken log2 fold change of `RRIRGRPPRLPRPRPRPQMSPRP` = 0.395

shrunken log2 fold change reading for `RRIRSRPPRLPRPRPRPFIIPRP` : -0.34

###

Reported shrunken log2 fold change values for the following sequences.
- Test system: Escherichia coli TOP10;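 also: peptides expressed intracellularly from a pBAD plasmid library in pooled LB shake-flask culture, induced with 0.3% L-arabinose, DNA abundance read by NGS, three biological replicates, DESeq2 with apeglm shrinkage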
- assay: shrunken log2 fold change of peptide-encoding DNA abundance (4.5 h post-induction vs induction); higher = less antimicrobial activity (less host growth inhibition)
- run conditions: time post-induction: 4.5 h; library: site-saturation at positions 5, 18, 19, 20
Please give only the number in your answer, with no unit.

[
  {
    "residue string": "RRIRNRPPRLPRPRPRPGFLPRP",
    "shrunken log2 fold change": -0.105
  },
  {
    "residue string": "RRIRERPPRLPRPRPRPHDYPRP",
    "shrunken log2 fold change": 0.0456
  },
  {
    "residue string": "RRIRCRPPRLPRPRPRPLHLPRP",
    "shrunken log2 fold change": -0.302
  },
  {
    "residue string": "RRIRGRPPRLPRPRPRPKFDPRP",
    "shrunken log2 fold change": 0.867
  },
  {
    "residue string": "RRIRYRPPRLPRPRPRPRARPRP",
    "shrunken log2 fold change": 2.17
  },
  {
    "residue string": "RRIRVRPPRLPRPRPRPMDYPRP",
    "shrunken log2 fold change": -0.0122
  },
  {
    "residue string": "RRIRMRPPRLPRPRPRPNEQPRP",
    "shrunken log2 fold change": 0.37
  },
  {
    "residue string": "RRIRNRPPRLPRPRPRPMHYPRP",
    "shrunken log2 fold change": -0.13
  }
]

Entry `RRIRRRPPRLPRPRPRPEKYPRP` under Escherichia coli TOP10 had shrunken log2 fold change of 0.135

Reported shrunken log2 fold change (Escherichia coli TOP10) for entry `RRIRIRPPRLPRPRPRPYMHPRP` is -1.32

Field shrunken log2 fold change (system: Escherichia coli TOP10) for entry `RRIRQRPPRLPRPRPRPGFPPRP` = -0.0539

Form field, shrunken log2 fold change with Escherichia coli TOP10, item `RRIRYRPPRLPRPRPRPGNFPRP` : -0.307

Lab entry: Escherichia coli TOP10 assay, sequence `RRIRVRPPRLPRPRPRPHDMPRP` , shrunken log2 fold change = -0.0267

Entry `RRIRQRPPRLPRPRPRPQFPPRP` : shrunken log2 fold change on Escherichia coli TOP10 = -0.202

Param item: `RRIRWRPPRLPRPRPRPDKCPRP` ; param system: Escherichia coli TOP10; output shrunken log2 fold change: -0.134
